pIC50 listing for selected binders.
Target: rabbit albumin (rabbit, UniProt P49065 25-608)
Sequence (P49065 25-608 limits assumed): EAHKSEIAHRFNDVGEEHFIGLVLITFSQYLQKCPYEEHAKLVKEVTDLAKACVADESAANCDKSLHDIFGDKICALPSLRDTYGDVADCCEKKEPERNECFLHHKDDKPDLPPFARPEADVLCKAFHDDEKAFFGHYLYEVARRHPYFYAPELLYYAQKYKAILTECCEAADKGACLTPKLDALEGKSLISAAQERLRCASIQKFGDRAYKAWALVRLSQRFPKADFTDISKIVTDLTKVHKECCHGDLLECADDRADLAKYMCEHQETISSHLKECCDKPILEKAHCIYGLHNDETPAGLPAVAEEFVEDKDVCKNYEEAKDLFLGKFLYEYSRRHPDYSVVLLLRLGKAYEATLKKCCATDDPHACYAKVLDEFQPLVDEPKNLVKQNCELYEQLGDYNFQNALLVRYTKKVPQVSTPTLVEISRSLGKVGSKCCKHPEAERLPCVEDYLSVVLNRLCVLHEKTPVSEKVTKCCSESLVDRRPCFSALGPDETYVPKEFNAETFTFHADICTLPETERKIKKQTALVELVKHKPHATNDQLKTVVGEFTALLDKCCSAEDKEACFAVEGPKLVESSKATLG
Assay: SA08b binding assay: competition with biotinylated SA08b for immobilized albumin
Bridges are numbered along the chain shown (N, C = ends). Where no end group is shown, it is not given here. code n = not defined here
By convention, pIC50 is the negative base-10 log of a molar concentration.

Example entries begin here.
{"Binder": "DICLPRWGCLW-{code n} (disulfide 3-9 (inferred); reading uncertain; also: printed as Asp-Ile-Cys-Leu-Pro-Arg-Trp-Gly-Cys-Leu-Trp, synthesized peptide) [SA04]", "pIC50": 5.07}
{"Binder": "Ac-MEDICLPRWGCLWEDD-{code n} (disulfide 5-11 (inferred); reading uncertain; also: printed as Met-Glu-Asp-Ile-Cys-Leu-Pro-Arg-Trp-Gly-Cys-Leu-Trp-Glu-Asp-Asp, synthesized peptide) [SA11]", "pIC50": 5.92}
{"Binder": "Ac-EDICLPRWGCLWEDD-{code n} (disulfide 4-10 (inferred); reading uncertain; also: printed as Glu-Asp-Ile-Cys-Leu-Pro-Arg-Trp-Gly-Cys-Leu-Trp-Glu-Asp-Asp, synthesized peptide) [SA09]", "pIC50": 5.77}

Lab note: next binder to report on.
Using known records, supply pIC50 for Ac-MEDICLPRWGCLWED-{code n} (disulfide 5-11 (inferred); reading uncertain; also: printed as Met-Glu-Asp-Ile-Cys-Leu-Pro-Arg-Trp-Gly-Cys-Leu-Trp-Glu-Asp, synthesized peptide) [SA12]
5.75
